Assay: Rat plasma metabolite profiles after single oral 5 mg/kg [14C]DCDQ
Type: in vivo, Sprague-Dawley rats
Conditions: male, 4 hr, mean n = 3
Where a name gives a salt, the structure may show the parent alone.
value-type: Chromatographic distribution of radioactivity in rat plasma (%)

OC1CN2C[C@@H]3CCC[C@@H]3c3cccc(c32)CN1 (stereo partly drawn) [Metabolite M1, hydroxy DCDQ] :: 9.1
O=C1CC[C@@H]2c3cccc4c3N(CCNC4)C[C@H]12 [Metabolite M7, 17-keto DCDQ] :: 9.4
O=S(=O)(O)OC1CC[C@@H]2c3cccc4c3N(CCNC4)CC12 (stereo partly drawn) [Metabolite M13, 17-hydroxy DCDQ sulfate] :: 2.2
OC1CNCc2cccc3c2N1C[C@@H]1CCC[C@H]31 (stereo partly drawn) [Metabolite M10, hydroxy DCDQ] :: 1.5
c1cc2c3c(c1)[C@H]1CCC[C@H]1CN3CCNC2 [DCDQ, reference compound] :: 14

[a] CC(=O)N1Cc2cccc3c2N(C[C@@H]2CCC[C@H]32)C(O)C1 (stereo partly drawn) [Metabolite M11, acetylated hydroxy DCDQ]
[b] OC1[C@@H]2CCC[C@@H]2c2cccc3c2N1CCNC3 (stereo partly drawn) [Metabolite M2, hydroxy DCDQ]
Exercise: Form: Entry with minimum Chromatographic distribution of radioactivity in rat plasma (choose one): a / b Please indicate the selected item by its label.
Key: b
(b: 3.4%, a: 5.2%)

----------
Assay: Dog urinary excretion and metabolite profiles after oral capsule of [14C]DCDQ
Type: in vivo, beagle dogs
Conditions: 24-48 hr, dog 1
value-type: Chromatographic distribution of radioactivity in dog urine (%)

c1cc2c3c(c1)[C@H]1CCC[C@H]1CN3CCNC2 [DCDQ, reference compound] :: 3.8

[a] O=C1CC[C@@H]2c3cccc4c3N(CCNC4)C[C@H]12 [Metabolite M7, 17-keto DCDQ]
[b] [O-][N+]12CCN=Cc3cccc(c31)[C@H]1CCC[C@H]1C2 (stereo partly drawn) [Metabolite M5, DCDQ imine N-oxide]
Exercise: Form: Entry with minimum Chromatographic distribution of radioactivity in dog urine (choose one): a / b Please indicate the selected item by its label.
Key: a
(a: 5.0%, b: 8.5%)

[I] O=C(O)[C@H]1O[C@@H](OC(=O)N2CCN3C[C@@H]4CCC[C@@H]4c4cccc(c43)C2)[C@H](O)[C@@H](O)[C@@H]1O [Metabolite M6, carbamoyl glucuronide of DCDQ]
[II] OC1[C@@H]2CCC[C@@H]2c2cccc3c2N1CCNC3 (stereo partly drawn) [Metabolite M2, hydroxy DCDQ]
Exercise: Form: Entry with minimum Chromatographic distribution of radioactivity in dog urine (choose one): I / II Please indicate the selected item by its label.
Key: I

----------
Experiment: Rat brain radioactivity content and metabolite profiles after single oral 5 mg/kg [14C]DCDQ
Type: in vivo, Sprague-Dawley rats
Conditions: Sprague-Dawley, rat, brain/plasma, oral, 5 mg/kg; male rats, 8 hr; read-out: Brain/Plasma Ratio, DCDQ
value-type: Kp at 8 h
// no unit, no text: just the number

Exercise: Could you tell me which Kp at 8 h is on file for c1cc2c3c(c1)[C@H]1CCC[C@H]1CN3CCNC2 [DCDQ, reference compound] ?
Key: 50.5

----------
Experiment: Concentrations of DCDQ and DCDQ carbamoyl glucuronide (M6) in human plasma, LC/SRM (Table 34)
Assay type: in vivo, healthy human subjects
Details: human, plasma, oral, 300 mg, plasma, 300 mg (fasted), 12 hr, Mean ± S.D.; read-out: M6 concentration in plasma
Method: Drug administration and specimen collection were performed in a randomized, double-blinded, placebo-controlled, ascending single dose study of the safety, tolerability, pharmacokinetics, and pharmacodynamics of DCDQ administered orally to healthy subjects and subjects with schizophrenia and schizoaffective disorder. […] LC/MS System 3 was used for semi-quantitative analysis of metabolite M6 (DCDQ carbamoyl glucuronide) in plasma and urine samples. […]
value-type: concentration at 12 h (µg/mL)
Reply numerically in µg/mL, unit not repeated.

Exercise: Could you tell me which concentration at 12 h is on file for O=C(O)[C@H]1O[C@@H](OC(=O)N2CCN3C[C@@H]4CCC[C@@H]4c4cccc(c43)C2)[C@H](O)[C@@H](O)[C@@H]1O [Metabolite M6, carbamoyl glucuronide of DCDQ] ?
Key: 0.0887

----------
Experiment: Dog plasma metabolite profiles after single 15 mg/kg oral capsule of [14C]DCDQ
Type: in vivo, beagle dogs
Settings: male, beagle, dog, plasma, oral, 15 mg/kg, 24 hr, dog 1; read-out: Estimated plasma concentration in dogs
value-type: concentration at 24 h (ng/mL)

Example results:
O=C1CC[C@@H]2c3cccc4c3N(CCNC4)C[C@H]12 [Metabolite M7, 17-keto DCDQ] :: 202
c1cc2c3c(c1)[C@H]1CCC[C@H]1CN3CCNC2 [DCDQ, reference compound] :: 39.6

[A] O=C(O)[C@H]1O[C@@H](OC(=O)N2CCN3C[C@@H]4CCC[C@@H]4c4cccc(c43)C2)[C@H](O)[C@@H](O)[C@@H]1O [Metabolite M6, carbamoyl glucuronide of DCDQ]
[B] OC1CN2C[C@@H]3CCC[C@@H]3c3cccc(c32)CN1 (stereo partly shown) [Metabolite M1, hydroxy DCDQ]
Exercise: Could you kindly indicate whether A or B has the higher concentration at 24 h value? Please indicate the selected item by its label.
Key: A
(A: 258 ng/mL, B: 104 ng/mL)

----------
Assay: Dog plasma metabolite profiles after single 15 mg/kg oral capsule of [14C]DCDQ
Format: in vivo, beagle dogs
Conditions: male, beagle, dog, plasma, oral, 15 mg/kg, 48 hr, dog 1; read-out: Estimated plasma concentration in dogs
value-type: concentration at 48 h (ng/mL)
Reply numerically in ng/mL, unit not repeated.

Exercise: Could you tell me which concentration at 48 h is on file for OC1CN2C[C@@H]3CCC[C@@H]3c3cccc(c32)CN1 (stereo partly shown) [Metabolite M1, hydroxy DCDQ] ?
Key: 58

----------
Test: Dog urinary excretion and metabolite profiles after oral capsule of [14C]DCDQ
Format: in vivo, beagle dogs
Details: 24-48 hr, dog 2
value-type: Chromatographic distribution of radioactivity in dog urine (%)

Example results:
O=C1CC[C@@H]2c3cccc4c3N(CCNC4)C[C@H]12 [Metabolite M7, 17-keto DCDQ] :: 6.2
OC1[C@@H]2CCC[C@@H]2c2cccc3c2N1CCNC3 (some centres unmarked) [Metabolite M2, hydroxy DCDQ] :: 18
[O-][N+]12CCN=Cc3cccc(c31)[C@H]1CCC[C@H]1C2 (some centres unmarked) [Metabolite M5, DCDQ imine N-oxide] :: 4.0

[A] O=C(O)[C@H]1O[C@@H](OC(=O)N2CCN3C[C@@H]4CCC[C@@H]4c4cccc(c43)C2)[C@H](O)[C@@H](O)[C@@H]1O [Metabolite M6, carbamoyl glucuronide of DCDQ]
[B] OC1CN2C[C@@H]3CCC[C@@H]3c3cccc(c32)CN1 (some centres unmarked) [Metabolite M1, hydroxy DCDQ]
Exercise: Form: Entry with minimum Chromatographic distribution of radioactivity in dog urine (choose one): A / B Please indicate the selected item by its label.
Key: A

----------
Test: Dog plasma metabolite profiles after single 15 mg/kg oral capsule of [14C]DCDQ
Type: in vivo, beagle dogs
Conditions: 2 hr, dog 2
value-type: Chromatographic distribution of radioactivity in dog plasma (%)

Example results:
[O-][N+]12CCN=Cc3cccc(c31)[C@H]1CCC[C@H]1C2 (some centres unmarked) [Metabolite M5, DCDQ imine N-oxide] :: 2.9
c1cc2c3c(c1)[C@H]1CCC[C@H]1CN3CCNC2 [DCDQ, reference compound] :: 1.9

[P] OC1[C@@H]2CCC[C@@H]2c2cccc3c2N1CCNC3 (some centres unmarked) [Metabolite M2, hydroxy DCDQ]
[Q] OC1CN2C[C@@H]3CCC[C@@H]3c3cccc(c32)CN1 (some centres unmarked) [Metabolite M1, hydroxy DCDQ]
[R] O=C(O)[C@H]1O[C@@H](OC(=O)N2CCN3C[C@@H]4CCC[C@@H]4c4cccc(c43)C2)[C@H](O)[C@@H](O)[C@@H]1O [Metabolite M6, carbamoyl glucuronide of DCDQ]
Exercise: Output the entries ranked by Chromatographic distribution of radioactivity in dog plasma from maximum down to minimum. The reply should contain the labels ordered as requested.
Key: R, P, Q

----------
Assay: Concentrations of DCDQ and DCDQ carbamoyl glucuronide (M6) in human plasma, LC/SRM (Table 34)
Format: in vivo, healthy human subjects
Conditions: human, plasma, oral, 50 mg, plasma, 50 mg (fasted), 24 hr, Mean (standard deviation not calculated); read-out: M6 concentration in plasma
value-type: concentration at 24 h (ng/mL)
Reply numerically in ng/mL, unit not repeated.

Exercise: Could you tell me which concentration at 24 h is on file for O=C(O)[C@H]1O[C@@H](OC(=O)N2CCN3C[C@@H]4CCC[C@@H]4c4cccc(c43)C2)[C@H](O)[C@@H](O)[C@@H]1O [Metabolite M6, carbamoyl glucuronide of DCDQ] ?
Key: 3.35

----------
Assay: Concentrations of DCDQ and DCDQ carbamoyl glucuronide (M6) in human plasma, LC/SRM (Table 34)
Assay type: in vivo, healthy human subjects
Conditions: human, plasma, oral, 50 mg, plasma, 50 mg (fasted), 24 hr, Mean (standard deviation not calculated); read-out: DCDQ concentration in plasma
Procedure: Drug administration and specimen collection were performed in a randomized, double-blinded, placebo-controlled, ascending single dose study of the safety, tolerability, pharmacokinetics, and pharmacodynamics of DCDQ administered orally to healthy subjects and subjects with schizophrenia and schizoaffective disorder. […] LC/MS System 3 was used for semi-quantitative analysis of metabolite M6 (DCDQ carbamoyl glucuronide) in plasma and urine samples. […]
value-type: concentration at 24 h (ng/mL)
Reply numerically in ng/mL, unit not repeated.

Exercise: Could you tell me which concentration at 24 h is on file for c1cc2c3c(c1)[C@H]1CCC[C@H]1CN3CCNC2 [DCDQ, reference compound] ?
Key: 0.4
